Measured values drawn from the supplement of paper PMC9170038 for this set.

system: K4 kissing-loop RNA reporter; experiment: apparent KD of K4 kissing-loop reporter; higher = weaker reporter binding; settings: Eterna round: R107; input ligand: none;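 further: bound reporter read as fluorescence of individual clusters on recovered sequencing chips by microscopy, with normalized cluster intensities fitted with a binding model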
outcome-measure: apparent KD of K4 kissing-loop reporter (nM)
Give just the number in nM; leave the unit off.

Sample records with apparent KD of K4 kissing-loop reporter:
AAACAUCACUGGGAGUGAUGUUCUCAGUGACGAGGACCGGUACGGCCGCCACUCGCGAGAGAUUUAGUCUAGUAUUGACUGCAUU [Excl Tryptophan A V11] ... 304
UGAUACCAGACUGAUACCAGCCAGUGAUGUUGGCAAUAUCCAAGGUGAGUCAAAGACUCGGGCCCUUGGCAGCAGUCUGGUAUCU [TheoBX 7 #SwitchBubble #StaticStem] ... 148
GCCUGAGCACGAAGGAGCGCCGUGACAGGUUACUGCCUUGGGCAGUGAUGUUGCUCAAUCUGGCAGGUAGGUCGCGUGCUCAGGC ... 162
UGGAUAUAGUGAUGUUAUAUAGAGAUGGAUACCAGCAGAGAGAAUUGCCCUUGGCAGCCGAAAGAAGUAUCAUUAGAGAAGAAUG [ExTheophyl.Ai] ... 253
UGUACCGAGUCAGGAUAUAGCGUCGAAAGACGAAAUGGAGUGAUGUUCCUUAAACUGCGAAAGCAGCUAGAAGGGACUUGGUACU [FmnBS 28 #SwitchBubble #StaticStem #DoubleMagnetSystem] ... 246

--- query ---
(Q) Fill in the blank: the reported apparent KD of K4 kissing-loop reporter of CGUUUAUAGCAGGAUACCAGUACGGAUAAAGUACGUUAAUAGUAGAGUGAUGUUCUAAAGUACCCUUGGCAGCUUAGAGUGAGUG [ExTheophylB.O] is ____.
(A) 112

---

test system: MS2 coat protein; assay: apparent KD of MS2 coat protein; designed switch direction (-1 OFF switch, 1 ON switch): -1; higher = weaker reporter binding; conditions: input ligand: microRNA oligo, concentration not stated
Returns the class for an entry based on its apparent KD of MS2 coat protein. Class ranges: zone 1 (below 0.02 µM), zone 2 (0.02 µM to below 0.05 µM), zone 3 (0.05 µM or more)

(Q) Category lookup for the sequence UAAUGUGCGAGAGGAUAUCGUGUACAAAGUACACGAGAAGGCUUCACAUGAGGAUCACCCAUGUAUCGAGGUGAAACACCUUGA [Omei Exc(NG)1 Bv3] (Eterna round: R96, puzzle: Exclusion NG 1)
(A) zone 3

(Q) Now try AGCUGUGGCCGAGGAUAUCCACAUGAGGAUCACCCAUGUCGAUACCAGCGUAAGCUGGAUAUAAGGGAGAAGGCGGUCUCAGCA [Eli eng2 - 053] (Eterna round: R96, puzzle: Exclusion NG 2) .
(A) zone 1

(Q) Try this sequence next: CAAACUUCGCGAGGAUAUGGGAUCAUAUAGAUGCCAGAAGGCGCGACAUGAGGAUCACCCAUGUGUUUUGCCCUGUGAUUCCAG [Eternabot solution 12] (Eterna round: R96, puzzle: Exclusion NG 1)
(A) zone 1

(Q) // next record ACAUGAGGAUCACCCAUGUGAAACCAAUGGCUGACUUUGAGACAGGAUAUUCGUGCAUAUCAUACGAAGAAGGGUCAUUACUGG [Deportation 96 - Jieux - Exclusion NG 3] (Eterna round: R96, puzzle: Exclusion NG 3)
(A) zone 2

(Q) Note, next up: UGUUGUUACGCAGGAUAUGAGGAUCACCCAUAGAAGGAUAACGAAAGUGAAGGUCUGAGGAUUACCCAGAAGGGCGGGUUAACA [pwkr exNG2 2xF5 2xFMN.2] (Eterna round: R96, puzzle: Exclusion NG 2)
(A) zone 3

(Q) Also CAUGAUUGGGAAGGAUAUUGACCUAGUUAGCGCCGAGAAGGUCCCUGUCACAUGAGGAUCACCCAUGUGAGUCUGGUGUUCGAG [Ex NG1 #95] (Eterna round: R96, puzzle: Exclusion NG 1) ?
(A) zone 1

(Q) // query: UACAUGAGGAUCACCCAUGUUUUGUCGUGUAUGGUAUUUAUCUAGGAUAUCAUUUGAUUUAGUUAUGAGAAGGAGAAUAUUAAU [JMF's solution 86] (Eterna round: R96, puzzle: Exclusion NG 3)
(A) zone 1

(Q) Now consider GCACGGAAUGUAGGAUAUUAGUGCGAUUAGCACUGAGAAGGACAUGAGGAUCACCCAUGUAACUCAAUAAUAAACCUUCCGUGC [Eli exng1 - 045] (Eterna round: R96, puzzle: Exclusion NG 1) .
(A) zone 1

(Q) Please do the same for UCACGGGAUUGAGGAUAUAUAUUAAUUUUUACAAUAGAAGGCAAAUUGUUAGUUUUUUCACUAUACAUGAGGAUCACCCAUGUU [JR_ExcBG1_Sub079] (Eterna round: R96, puzzle: Exclusion NG 1) as well.
(A) zone 1

(Q) Param item: CACCCUGAUGACAAAUUACAUGAGGAUCACCCAUGUGCCUCGCAGGAUAUCCCAGCACGUCGCAAGGAGAAGGGCGACGCGCCA [Ralerira] (Eterna round: R96, puzzle: Exclusion NG 3)
(A) zone 2

(Q) Would you mind doing GUCGUGCAGCUUUGCUGUACGAGUACAUGAGGAUCACCCAUGUAGGAUAUGGUACGCUUUGCGUGCUAGAAGGAUAUGUGUAGG [salish99_ExNG3_r04_501] (Eterna round: R96, puzzle: Exclusion NG 3) as well?
(A) zone 2

(Q) Next up: ACAUGAGGAUCACCCAUGUCCGGCUGGUCUGUUCCGGUUGUCGAGGAUAUAGUUCGGUGUUCGCGCUAGAAGGUGGGAGCUGGA [Aenatbe mod 54] (Eterna round: R96, puzzle: Exclusion NG 3)
(A) zone 3

(Q) Follow-up item: GCGCACCUACCAAAAGGUAGGCCAACAUGAGGAUCACCCAUGUAGGAUAUCGAUUGCUUUGCAGUCGAGAAGGGCAUGAUGCGC [JL ENG3 3.80 Mod 20] (Eterna round: R96, puzzle: Exclusion NG 3)
(A) zone 1

(Q) Check UGUUAGAUGGUAGGAUAUCCAUAUCGAGUGACCCUUUCAUAACAUGAGGAUCACCCAUGUCGGUGGGAGAAGGGCCGUAUGGUG [salish99_ExNG02_R04_031] (Eterna round: R96, puzzle: Exclusion NG 2) too.
(A) zone 1

(Q) Input AAGAAAGACGAAGGAUAUUCAGGCGCCGAAGUAGAAGAAGGUCGUCCGGGUGUCCUAAAACUUGAGGAUCACCCAAGUAGAAGA [Mutated MS2 EX1.2] (Eterna round: R96, puzzle: Exclusion NG 1)
(A) zone 1

(Q) Proceed to AUCAGCUCGUGAGGAUAUACAUGAGGAUCACCCAUGUGGUCAAUAGCAGCUUCGGCUGCAUACAUGUAGAAGGCACGAGCUGAU [ENG2/7-A2] (Eterna round: R96, puzzle: Exclusion NG 2)
(A) zone 3

(Q) How about UGAGAGAGUAUAGGAUAUUAGAGGAGAAUGGUGAUAGAGACAUGAGGAUCACCCAUGUGAGGAGAUAAGAAGGGUAAGAACUCA [AK ExNG2-V2-4] (Eterna round: R96, puzzle: Exclusion NG 2) ?
(A) zone 3

---

In this section we review reported apparent KD of MS2 coat protein values for a set of sequences.
system: MS2 coat protein; experiment: apparent KD of MS2 coat protein; designed switch direction (-1 OFF switch, 1 ON switch): 1; higher = weaker reporter binding; settings: Eterna round: R95; input ligand: none
Respond numerically; units are nM and should not be typed.

Examples with their reported apparent KD of MS2 coat protein follow.
GGCAUGCGGCGUACCGUAUGCUGGUAUGUACAUGAGGAUCACCCAUGUCAUGUACAGGCUUGUUGCUCGUCUUAUUG [JL-shm-2.41 JL mod] (puzzle: Sensor for hsa-mir-208a) ... 158
UUUAUACAUGAGGAUCACCCAUGUCAAUGUAGUCGAGGAUAUGGGCAGCUGUGAGGCGUACUAGAAGGCGAAGAGG [JL-ss1-3.09 ViennaUCT mod] (puzzle: Same State 1) ... 579
AAAAUACAUGAGGAUCACCCAUGUAGAAACUACACAGGAUAUCGGACGGCUGUAGCCGAACGAGAAGGGUGAACCC [Uszadi] (puzzle: Same State 1) ... 313
AUUAAACAUGAGGAUCACCCAUGUCAACAAAGUCGAGGAUAUGGGCAAAUAAAAUAAGAUCCAGAAGGCGAAUAAU [salish99_ss1_r3_067] (puzzle: Same State 1) ... 19.5
ACGCGGGUAUCACAGGAUAUACUCAUAACUACAUGAGGAUCACCCAUGUGGCGGAAUUCCGGUGCGUAGAAGGGUGAUGGACCGC [Artece] (puzzle: Same State 2) ... 26.9
GGAGAGAGAGCGGAGGAUAUUCAAGGAGAGACAUGAGGAUCACCCAUGUAAGAGAGAGAGGAGAGGAAGAAGGCUGAGAGAGAGG [Altered State 2-10 - Jieux - Same State 2] (puzzle: Same State 2) ... 42.8

(Q) Query (sequence): CUAACAACAAGUUGCAGUGUUCGUCUUUAACAUGAGGAUCACCCAUGUAAUAGCCCGGUAGAAGCGCUCGGGCCACC [Anaesrain] (puzzle: Sensor for hsa-mir-208a) ; field requested: apparent KD of MS2 coat protein
(A) 36.3
